For reference, the following IC50 results for Acyl-CoA desaturase 1 (Rattus norvegicus) were taken from various sources.
observation type: IC50 (nM)

# structure smiles string, operator, meas value
measured = [
    ("Cc1ccc(-c2ccc(-c3nc4ccc(S(C)(=O)=O)cc4[nH]3)cc2)cc1", ">", 20000),
    ("CCCN1CCC2(CCN(C(=O)CNC(C)=O)CC2)Oc2ccccc21", ">", 10000),
    ("Cn1c(-c2ccc(-c3ccccc3F)nc2)nc2ccc(S(C)(=O)=O)cc21", ">", 20000),
    ("NC(=O)c1cnc(N2CC[C@@H](Oc3ccccc3C(F)(F)F)C2)s1", ">", 20000),
    ("CC(=O)NCC(=O)N1CCC2(CC1)CCN(c1ccccc1)c1ccccc1O2", ">", 10000),
    ("Cc1cccc(OC2CCN(c3ccc(-n4ccnc4)nn3)CC2)c1", "=", 251),
    ("O=C1CCCN1c1cnc(N2CCC(Oc3ccccc3C(F)(F)F)CC2)s1", "=", 164),
    ("NS(=O)(=O)c1ccc2nc(-c3ccc(-c4ccccc4F)cc3)[nH]c2c1", "=", 343),
    ("CC(=O)NCC(=O)N1CCC2(CC1)CCN(Cc1ccc(Cl)cc1)c1ccccc1O2", ">", 10000),
    ("Brc1cccc(OC2CCN(c3ccc(-n4ccnc4)nn3)CC2)c1", "=", 23),
    ("CC(=O)NCC(=O)N1CCC2(CC1)CCN(Cc1ccc(F)cc1)c1ccccc1O2", "=", 460),
    ("COc1ccc(C(F)(F)F)c(C(=O)N2CCN(c3ccc(C(=O)NCCCc4ccccc4)cn3)CC2)c1", "=", 100),
    ("CC(C)c1nnc(-c2ccc(N3CCC(Oc4ccccc4C(F)(F)F)CC3)nn2)o1", "=", 3.9),
    ("c1cn(-c2ccc(N3CCC(Oc4ccc5c(c4)CCC5)CC3)nn2)cn1", "=", 62),
    ("CC(=O)NCC(=O)N1CCC2(CC1)CCN(Cc1ccccc1C)c1ccccc1O2", "=", 1200),
    ("CS(=O)(=O)c1ccn2cc(-c3ccc(-c4ccccc4)cc3)nc2c1", "=", 42),
    ("OCc1cnn(-c2ccc(N3CCC(N4CCc5ccc(F)cc54)CC3)nn2)c1", "=", 17),
    ("NC(=O)c1cnc(N2CCN(S(=O)(=O)c3ccccc3C(F)(F)F)CC2)s1", ">", 3000),
    ("CN(C)c1ccc(-c2ccc(N3CCC(N4CCc5ccc(F)cc54)CC3)nn2)cn1", "=", 17),
]

###

- experimental system: Acyl-CoA desaturase 1 (Rattus norvegicus, UniProt P07308)
- Sequence (P07308 whole entry): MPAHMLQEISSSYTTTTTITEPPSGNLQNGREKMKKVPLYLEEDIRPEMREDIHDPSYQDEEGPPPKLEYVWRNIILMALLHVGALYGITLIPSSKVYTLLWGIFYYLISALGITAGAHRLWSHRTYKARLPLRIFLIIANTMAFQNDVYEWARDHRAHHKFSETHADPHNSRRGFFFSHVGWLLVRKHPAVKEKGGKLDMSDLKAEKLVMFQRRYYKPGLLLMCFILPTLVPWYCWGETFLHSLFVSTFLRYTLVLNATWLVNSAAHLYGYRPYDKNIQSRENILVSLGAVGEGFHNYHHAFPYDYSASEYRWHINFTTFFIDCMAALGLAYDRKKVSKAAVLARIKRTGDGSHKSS
For reference, the following IC50 results for Acyl-CoA desaturase 1 (Rattus norvegicus, UniProt P07308) were taken from various sources.

# compound, experimental system, IC50 (nM)
measured = [
    ("O=C(O)c1cnc(N2CCC3(CC2)CCN(Cc2cccc(C(F)(F)F)c2)c2ccccc2O3)s1", "Acyl-CoA desaturase 1 (Rattus norvegicus, UniProt P07308)", 8),
    ("CC(C)c1nnc(-c2ccc(N3CCC(Oc4ccccc4C(F)(F)F)CC3)nn2)s1", "Acyl-CoA desaturase 1 (Rattus norvegicus, UniProt P07308)", 8.8),
    ("O=C(Nc1nc2c(s1)CC(O)CC2)N1CCC(N2CCc3ccc(F)cc32)CC1 (stereo not drawn)", "Acyl-CoA desaturase 1 (Rattus norvegicus, UniProt P07308)", 14),
]
